// EC50 lookup, one value per entry
# TEST SUMMARY: Modulation of basal activity of HCMV US28 expressed in tetracyclin-induced HEK293 cells assessed as change in inositol phosphate accumulation using [3H]-myo-inositol by scintillation proximity assay
# Format: cell-based
# TEST CONDITIONS: Human betaherpesvirus 5, HEK293; read-out: pEC50 (converted)
Note: unit µM is implicit; provide only the numeric part.

{"MOLECULE": "Cc1nc2ccccc2n1CC1CCN(CC(=O)Nc2ccc(OC(F)(F)F)cc2)CC1", "EC50 [µM]": 0.251}
{"MOLECULE": "O=C(CN1CCC(Cn2c(C(F)(F)F)nc3ccccc32)CC1)Nc1ccccc1C(F)(F)F", "EC50 [µM]": 1.26}

Recall and state the measured EC50 for O=C(CN1CCC(Cn2cnc3ccccc32)CC1)N1CCN(c2ccccc2)CC1 . 3.98

Recall and state the measured EC50 for O=C(CN1CCN(CN2C(=O)NC3(CCCCC3)C2=O)CC1)Nc1ccc(OC(F)(F)F)cc1 . 0.501

Recall and state the measured EC50 for N#CC(CCCN1CCC(O)(c2ccc(Cl)cc2)CC1)(c1ccccc1)c1ccccc1 . 10

----------
# TEST SUMMARY: Modulation of basal activity of HCMV US28 expressed in tetracyclin-induced HEK293 cells assessed as change in inositol phosphate accumulation using [3H]-myo-inositol by scintillation proximity assay
# Assay type: cell-based
# TEST CONDITIONS: Human betaherpesvirus 5, HEK293; read-out: pEC50 (converted)
OBSERVATION TYPE: log10 EC50 (log10 of the value in nM)
Values are log10 of EC50 in nM.

These recorded examples may help you get a feel for the data.
{"MOLECULE": "Cc1cc2ncn(CC3CCN(CC(=O)NCc4ccc(F)cc4)CC3)c2cc1C", "log10 EC50": 1.50}
{"MOLECULE": "O=C(CN1CCN(Cc2cccc3ccccc23)CC1)Nc1ccc2c(c1)OCO2", "log10 EC50": 1.60}
{"MOLECULE": "O=C(CN1CCN(Cc2nc(-c3cccc(C(F)(F)F)c3)no2)CC1)NC1CCCCC1", "log10 EC50": 4.30}
{"MOLECULE": "N#Cc1c(CN2CCN(CC(=O)Nc3ccccc3Cl)CC2)cn2ccccc12", "log10 EC50": 1.80}

Now look at this entry.
Recall and state the measured log10 EC50 for Cn1c(CN2CCN(CC(=O)Nc3ccc(F)cc3F)CC2)nc2ccccc21 . 2.10
